protocolText: Ketose 3-epimerase activity ratio (T70/T50) at reaction temperature of 70° C. to 50° C.
Format: biochemical
studyConditions: crude recombinant enzyme; ratio of activity at 70° C. to activity at 50° C., 10 min reaction
quantityMeasured: T70/T50
Format: numeric value only, no unit, no commentary.

Look up and report measured T70/T50 for this entry: Ketose 3-epimerase mutant 32: amino acid-substituted mutant of SEQ ID NO: 1 (protein, Arthrobacter histidinolovorans) MKIGCHGLVWTGRFDAEGIRYSVQKTKEAGFDLIEFPLMDPFSFDVATAKSALAEHGLTASASLGLSEATDVSSEDSAIVKAGEELLNRALDVLAELGATDFCGVIYSAMKKYMEPATEQGLSNSKAAVGRVVDRAAGLGINVSLEVVNRYETNVLNTGRQALSYLSDVKRPNLGVHLDTYHMNIEESDMFSPVLDTAEALKYVHIGESHRGYLGTGSVDFDNFFKALGRIGYDGPVVFESFSSAVVAPDLSRMLGIWRNLWADNEELGAHANAFIRDKLTAIKTIELH
1.53

Look up and report measured T70/T50 for this entry: Ketose 3-epimerase mutant 29: amino acid-substituted mutant of SEQ ID NO: 1 (protein, Arthrobacter histidinolovorans) MKIGCHGLVWTGRFDAEGIRYSVQKTKEAGFDLIEFPLMDPFSFDVATAKSALAEYGLTASASLGLSEATDVSSEDPAIVKAGEELLNRALDVLAELGATDFCGVIYSAMKKYMEPATEQGLSNSKAAVGRVVDRAAGLGINVSLEVVNRYETNVLNTGRQALSYLSDVKRPNLGVHLDTYHMNIEESDMFSPVLDTAEALKYVHIGESHRGYLGTGSVDFDNFFKALGRIGYDGPVVFESFSSAVVAPDLSRMLGIWRNLWADNEELGAHANAFIRDKLTAIKTIELH
1.58

Look up and report measured T70/T50 for this entry: Ketose 3-epimerase mutant 20: amino acid-substituted mutant of SEQ ID NO: 1 (protein, Arthrobacter histidinolovorans) MKIGCHGLVWTGRFDAEGIRYSVQKTKEAGFDLIEFPLMDPFSFDVATAKSALAEHGLSVSASLGLSEATDVSSEDPAIVKAGEELLNRALDVLAELGATDFCGVIYSAMKKYMEPATEQGLSNSKAAIGRVVDRAAGLGINVSLEVVNRYETNVLNTGRQALSYLSDVKRPNLGVHLDTYHMNIEESDMFSPVLDTAEALKYVHIGESHRGYLGTGSVDFDNFFKALGRIGYDGPVVFESFSSAVVAPDLSRMLGIWRNLWADNEELGAHANAFIRDKLTAIKTIELH
1.79

Look up and report measured T70/T50 for this entry: Ketose 3-epimerase mutant 11: amino acid-substituted mutant of SEQ ID NO: 1 (protein, Arthrobacter histidinolovorans) MKIGCHGLVWTGRFDAEGIRYSVQKTKEAGFDLIEFPLMDPFSFDVATAKSALAEHGLTASASLGLSEATDVSSEDPAIVKAGEELLNRALDVLAELGATDFCGVIYSAMKKYMEPATEQGLSNSKAAIGRVVDRAAGLGINVSLEVVNRYETNVLNTGRQALSYLSDVKRPNLGVHLDTYHMNIEESDMFSPVLDTAEALKYVHIGESHRGYLGTGSVDFDNFFKALGRIGYDGPVVFESFSSAVVAPDLSRMLGIWRNLWADNEELGAHANAFIRDKLTAIKTIELH
1.95

Look up and report measured T70/T50 for this entry: Ketose 3-epimerase mutant 16: amino acid-substituted mutant of SEQ ID NO: 1 (protein, Arthrobacter histidinolovorans) MKIGCHGLVWTGRFDAEGIRYSVQKTKEAGFDLIEFPLMDPFSFDVATAKSALAEHGLSVSASLGLSEATDVSSEDPAIVKAGEELLNRALDVLAELGATEFCGVIYSAMKKYMEPATEQGLSNSKAAIGRVVDRAAGLGINVSLEVVNRYETNVLNTGRQALSYLSDVKRPNLGVHLDTYHMNIEESDMFSPVLDTAEALKYVHIGESHRGYLGTGSVDFDNFFKALGRIGYDGPVVFESFSSAVVAPDLSRMLGIWRNLWADNEELGAHANAFIRDKLTAIKTIELH
1.89

Look up and report measured T70/T50 for this entry: Ketose 3-epimerase mutant 25: amino acid-substituted mutant of SEQ ID NO: 1 (protein, Arthrobacter histidinolovorans) MKIGCHGLVWTGRFDAEGIRYSVQKTKEAGFDLIEFPLMDPFSFDVATAKSALAEHGLTASASLGLSEATDVSSEDPAIVKAGEELLNRALDVLAELGATDFCGVIYSAMKKYMEPATEQGLSNSKAAVGRVVDRAAGLGINVSLEVVNRYETNVLNTGRQALSYLSDVKRPNLGVHLDTYHMNIEESDMFSPVLDTAEALRYVHIGESHRGYLGTGSVDFDNFFKALGRIGYDGPVVFESFSSAVVAPDLSRMLGIWRNLWADNEELGAHANAFIRDKLTAIKTIELH
1.66

Look up and report measured T70/T50 for this entry: Ketose 3-epimerase mutant 27: amino acid-substituted mutant of SEQ ID NO: 1 (protein, Arthrobacter histidinolovorans) MKIGCHGLVWTGRFDAEGIRYSVQKTKEAGFDLIEFPLMDPFSFDVATAKSALAEHGLTASASLGLSEATDVSSEDPAIVKAGEELLNRALDVLAELGATEFCGVIYSAMKKYMEPATEQGLSNSKAAIGRVVDRAAGLGINVSLEVVNRYETNVLNTGRQALSYLSDVKRPNLGVHLDTYHMNIEESDMFSPVLDTAEALKYVHIGESHRGYLGTGSVDFDNFFKALGRIGYDGPVVFESFSSAVVAPDLSRMLGIWRNLWADNEELGAHANAFIRDKLTAIKTIELH
1.64
